Data origin, for the record: ChEMBL document CHEMBL1153436

This listing pairs compounds with measured fraction unbound.
assay_procedure: Protein binding in human plasma by equilibrium dialysis
Assay type: ADME, cell-free
assay_setup: read-out: PB (converted)

{"given_smiles": "COC(=O)N[C@H](C(=O)N[C@@H](Cc1ccc(-c2ccccn2)cc1)C[C@H](O)[C@H](Cc1ccccc1)NC(=O)[C@@H](N1CCN(Cc2ccccc2)C1=O)C(C)(C)C)C(C)(C)C", "fraction unbound": 0.0034}

Form field fraction unbound, entry COC(=O)N[C@H](C(=O)N[C@H](Cc1ccc(-c2ccccn2)cc1)C[C@H](O)[C@H](Cc1ccccc1)NC(=O)[C@@H](N1CCN(Cc2cccc(C(C)(C)O)n2)C1=O)C(C)(C)C)C(C)(C)C : 0.018

====

Reported bioavailability by item:
assay_procedure: Oral bioavailability in Sprague-Dawley rat at 5 mg/kg
Type: ADME, organism-based
assay_setup: in vivo
Remember to put the unit after the number in your answer.

Example cases with answers are listed next.
{"given_smiles": "COC(=O)N[C@H](C(=O)N[C@@H](Cc1ccc(-c2ccccn2)cc1)[C@@H](O)C[C@H](Cc1ccccc1)NC(=O)[C@@H](N1CCN(Cc2csc(-c3cccnc3)n2)C1=O)C(C)(C)C)C(C)(C)C", "bioavailability": "1.6%"}
{"given_smiles": "COC(=O)N[C@H](C(=O)N[C@H](Cc1ccc(-c2ccccn2)cc1)C[C@H](O)[C@H](Cc1ccccc1)NC(=O)[C@@H](N1CCN(Cc2ccnc3ccccc23)C1=O)C(C)(C)C)C(C)(C)C", "bioavailability": "0%"}
{"given_smiles": "COC(=O)N[C@H](C(=O)N[C@@H](Cc1ccc(-c2ccccn2)cc1)C[C@H](O)[C@H](Cc1ccccc1)NC(=O)[C@@H](N1CCN(Cc2cccc(C(C)(C)O)n2)C1=O)C(C)(C)C)C(C)(C)C", "bioavailability": "5.7%"}

Please fill in: bioavailability reported for COC(=O)N[C@H](C(=O)N[C@@H](Cc1ccc(-c2ccccn2)cc1)C[C@H](O)[C@H](Cc1ccccc1)NC(=O)[C@@H](N1CCN(Cc2ccnc3ccccc23)C1=O)C(C)(C)C)C(C)(C)C = 0.6%

====

assay_procedure: AUC in Sprague-Dawley rat at 5 mg/kg, po
Assay type: ADME, organism-based
Parameters: dose 5 mg/kg, route oral
assay_setup: plasma
readout_label: AUC (ng·h/mL)
Quick reminder: number only, in ng·h/mL, skip the unit.

// solved cases for AUC follow
{"given_smiles": "COC(=O)N[C@H](C(=O)N[C@@H](Cc1ccc(-c2ccccn2)cc1)[C@@H](O)C[C@H](Cc1ccccc1)NC(=O)[C@@H](N1CCN(Cc2ccnc3ccccc23)C1=O)C(C)(C)C)C(C)(C)C", "AUC (ng·h/mL)": 50}
{"given_smiles": "COC(=O)N[C@H](C(=O)N[C@@H](Cc1ccc(-c2ccccn2)cc1)C[C@H](O)[C@H](Cc1ccccc1)NC(=O)[C@@H](N1CCN(Cc2csc(-c3cccnc3)n2)C1=O)C(C)(C)C)C(C)(C)C", "AUC (ng·h/mL)": 20}

Now take the following compound into account.
# compound COC(=O)N[C@H](C(=O)N[C@H](Cc1ccc(-c2ccccn2)cc1)C[C@H](O)[C@H](Cc1ccccc1)NC(=O)[C@@H](N1CCN(Cc2cccc(C(C)(C)O)n2)C1=O)C(C)(C)C)C(C)(C)C ; its AUC = 180

====

target_system: UniProt:P08684
Sequence (P08684 whole entry): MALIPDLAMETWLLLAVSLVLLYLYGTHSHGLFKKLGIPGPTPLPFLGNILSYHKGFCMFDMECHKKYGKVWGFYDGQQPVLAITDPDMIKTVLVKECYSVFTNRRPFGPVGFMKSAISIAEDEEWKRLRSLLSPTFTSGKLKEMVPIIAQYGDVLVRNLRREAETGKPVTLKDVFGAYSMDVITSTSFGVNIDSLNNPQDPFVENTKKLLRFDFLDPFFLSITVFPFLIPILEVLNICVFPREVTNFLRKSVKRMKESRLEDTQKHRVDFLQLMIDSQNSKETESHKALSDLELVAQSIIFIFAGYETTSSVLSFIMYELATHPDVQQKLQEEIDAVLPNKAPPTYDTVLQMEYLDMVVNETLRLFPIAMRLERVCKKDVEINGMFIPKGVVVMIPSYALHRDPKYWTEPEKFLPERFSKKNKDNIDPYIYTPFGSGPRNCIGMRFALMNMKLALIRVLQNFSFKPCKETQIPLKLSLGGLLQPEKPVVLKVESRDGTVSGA
readout_label: Ki
Field note: include the unit after the figure.

{"given_smiles": "COC(=O)N[C@H](C(=O)N[C@H](Cc1ccc(-c2ccccn2)cc1)C[C@H](O)[C@H](Cc1ccccc1)NC(=O)[C@@H](N1CCN(Cc2cccc(C(C)(C)O)n2)C1=O)C(C)(C)C)C(C)(C)C", "recorded_measurement": "66 nM"}

Let us examine a further case.
The molecule COC(=O)N[C@H](C(=O)N[C@@H](Cc1ccc(-c2ccccn2)cc1)C[C@H](O)[C@H](Cc1ccccc1)NC(=O)[C@@H](N1CCN(Cc2ccccc2)C1=O)C(C)(C)C)C(C)(C)C , when measured on UniProt:P08684, yielded Ki of 18 nM

====

target_system: UniProtKB P05177
Sequence (P05177 whole entry): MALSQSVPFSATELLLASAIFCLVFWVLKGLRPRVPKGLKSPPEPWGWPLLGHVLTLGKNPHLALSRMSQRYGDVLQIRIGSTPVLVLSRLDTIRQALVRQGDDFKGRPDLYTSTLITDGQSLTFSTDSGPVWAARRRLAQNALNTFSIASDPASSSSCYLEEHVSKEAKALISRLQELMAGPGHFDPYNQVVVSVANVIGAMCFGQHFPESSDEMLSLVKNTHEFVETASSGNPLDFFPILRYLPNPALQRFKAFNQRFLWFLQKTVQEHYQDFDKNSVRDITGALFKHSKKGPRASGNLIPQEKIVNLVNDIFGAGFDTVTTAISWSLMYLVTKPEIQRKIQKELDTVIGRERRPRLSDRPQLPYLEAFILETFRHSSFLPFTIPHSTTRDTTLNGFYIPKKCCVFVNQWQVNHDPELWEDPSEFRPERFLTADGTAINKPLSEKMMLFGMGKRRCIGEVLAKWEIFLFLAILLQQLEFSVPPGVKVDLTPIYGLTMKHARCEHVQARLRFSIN
pIC50: −log10 of the molar value.
readout_label: pIC50

{"given_smiles": "COC(=O)N[C@H](C(=O)N[C@@H](Cc1ccc(-c2ccccn2)cc1)C[C@H](O)[C@H](Cc1ccccc1)NC(=O)[C@@H](N1CCN(Cc2ccccc2)C1=O)C(C)(C)C)C(C)(C)C", "pIC50": "< 5.00"}

With UniProtKB P05177 as the test system, COC(=O)N[C@H](C(=O)N[C@H](Cc1ccc(-c2ccccn2)cc1)C[C@H](O)[C@H](Cc1ccccc1)NC(=O)[C@@H](N1CCN(Cc2cccc(C(C)(C)O)n2)C1=O)C(C)(C)C)C(C)(C)C showed pIC50 of < 5.30

====

assay_procedure: Inhibition of human pepsin
readout_label: Ki (µM)
Write the number in µM without appending the unit.

{"given_smiles": "COC(=O)N[C@H](C(=O)N[C@@H](Cc1ccc(-c2ccccn2)cc1)C[C@H](O)[C@H](Cc1ccccc1)NC(=O)[C@@H](N1CCN(Cc2ccccc2)C1=O)C(C)(C)C)C(C)(C)C", "Ki (µM)": 177}

Now, please, on to the next compound.
GET /value?item= COC(=O)N[C@H](C(=O)N[C@H](Cc1ccc(-c2ccccn2)cc1)C[C@H](O)[C@H](Cc1ccccc1)NC(=O)[C@@H](N1CCN(Cc2cccc(C(C)(C)O)n2)C1=O)C(C)(C)C)C(C)(C)C &field=Ki returns 200

====

target_system: Cytochrome P450 2C19 (Homo sapiens, UniProt P33261)
Sequence (P33261 whole entry): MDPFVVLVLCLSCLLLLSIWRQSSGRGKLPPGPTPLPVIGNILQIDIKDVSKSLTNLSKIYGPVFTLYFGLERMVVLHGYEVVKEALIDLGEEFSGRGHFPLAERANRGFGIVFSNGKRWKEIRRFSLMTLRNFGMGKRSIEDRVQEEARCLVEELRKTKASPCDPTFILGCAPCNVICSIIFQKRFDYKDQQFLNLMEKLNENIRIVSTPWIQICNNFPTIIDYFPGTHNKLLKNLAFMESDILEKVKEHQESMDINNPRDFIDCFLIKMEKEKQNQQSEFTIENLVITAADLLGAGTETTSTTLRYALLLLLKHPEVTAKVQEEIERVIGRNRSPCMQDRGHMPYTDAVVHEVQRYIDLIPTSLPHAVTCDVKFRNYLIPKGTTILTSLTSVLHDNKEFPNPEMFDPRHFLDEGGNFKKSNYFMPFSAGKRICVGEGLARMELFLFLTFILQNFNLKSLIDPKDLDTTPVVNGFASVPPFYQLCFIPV
pIC50: −log10 of the molar value.
readout_label: pIC50

{"given_smiles": "COC(=O)N[C@H](C(=O)N[C@@H](Cc1ccc(-c2ccccn2)cc1)C[C@H](O)[C@H](Cc1ccccc1)NC(=O)[C@@H](N1CCN(Cc2ccccc2)C1=O)C(C)(C)C)C(C)(C)C", "pIC50": "< 5.00"}

Record COC(=O)N[C@H](C(=O)N[C@H](Cc1ccc(-c2ccccn2)cc1)C[C@H](O)[C@H](Cc1ccccc1)NC(=O)[C@@H](N1CCN(Cc2cccc(C(C)(C)O)n2)C1=O)C(C)(C)C)C(C)(C)C . Reported pIC50: < 5.30

====

assay_procedure: AUC in Sprague-Dawley rat at 5 mg/kg, po
Assay type: ADME, organism-based
Design: dose 5 mg/kg, route oral
assay_setup: plasma
# cutoff 200 ng·h/mL applies to AUC; >= gives fulfilled, < gives not fulfilled

Worked cases, answers included:
{"given_smiles": "COC(=O)N[C@H](C(=O)N[C@@H](Cc1ccc(-c2ccccn2)cc1)C[C@H](O)[C@H](Cc1ccccc1)NC(=O)[C@@H](N1CCN(Cc2cccc(C)c2)C1=O)C(C)(C)C)C(C)(C)C", "label_value": "not fulfilled"}
{"given_smiles": "COC(=O)N[C@H](C(=O)N[C@@H](Cc1ccc(-c2ccccn2)cc1)[C@@H](O)C[C@H](Cc1ccccc1)NC(=O)[C@@H](N1CCN(Cc2cccc(C(C)(C)O)n2)C1=O)C(C)(C)C)C(C)(C)C", "label_value": "fulfilled"}
{"given_smiles": "COC(=O)N[C@H](C(=O)N[C@@H](Cc1ccc(-c2ccccn2)cc1)C[C@H](O)[C@H](Cc1ccccc1)NC(=O)[C@@H](N1CCN(Cc2ccccc2)C1=O)C(C)(C)C)C(C)(C)C", "label_value": "not fulfilled"}

Given COC(=O)N[C@H](C(=O)N[C@@H](Cc1ccc(-c2ccccn2)cc1)[C@@H](O)C[C@H](Cc1ccccc1)NC(=O)[C@@H](N1CCN(Cc2csc(C)n2)C1=O)C(C)(C)C)C(C)(C)C , state whether its AUC is at least 200 ng·h/mL.
fulfilled

Check this compound for AUC at or above 200 ng·h/mL: COC(=O)N[C@H](C(=O)N[C@@H](Cc1ccc(-c2ccccn2)cc1)C[C@H](O)[C@H](Cc1ccccc1)NC(=O)[C@@H](N1CCN(Cc2ccccc2N)C1=O)C(C)(C)C)C(C)(C)C
not fulfilled

====

assay_procedure: Oral bioavailability in Sprague-Dawley rat at 5 mg/kg
Assay type: ADME, organism-based
assay_setup: in vivo
readout_label: bioavailability
Express the reported value numerically, then name its unit.

Sample COC(=O)N[C@H](C(=O)N[C@H](Cc1ccc(-c2ccccn2)cc1)C[C@H](O)[C@H](Cc1ccccc1)NC(=O)[C@@H](N1CCN(Cc2cccc(C(C)(C)O)n2)C1=O)C(C)(C)C)C(C)(C)C ; bioavailability observed: 4.9%

Looking up COC(=O)N[C@H](C(=O)N[C@@H](Cc1ccc(-c2ccccn2)cc1)C[C@H](O)[C@H](Cc1ccccc1)NC(=O)[C@@H](N1CCN(Cc2cccc(C)c2)C1=O)C(C)(C)C)C(C)(C)C , I found its bioavailability recorded as 0.8%

bioavailability measured on COC(=O)N[C@H](C(=O)N[C@@H](Cc1ccc(-c2ccccn2)cc1)[C@@H](O)C[C@H](Cc1ccccc1)NC(=O)[C@@H](N1CCN(Cc2csc(C)n2)C1=O)C(C)(C)C)C(C)(C)C = 11.2%

The recorded bioavailability for entry COC(=O)N[C@H](C(=O)N[C@@H](Cc1ccc(-c2ccccn2)cc1)C[C@H](O)[C@H](Cc1ccccc1)NC(=O)[C@@H](N1CCN(Cc2ccccc2OC)C1=O)C(C)(C)C)C(C)(C)C equals 3.1%

Recorded bioavailability (molecule COC(=O)N[C@H](C(=O)N[C@@H](Cc1ccc(-c2ccccn2)cc1)[C@@H](O)C[C@H](Cc1ccccc1)NC(=O)[C@@H](N1CCN(Cc2ccnc3ccccc23)C1=O)C(C)(C)C)C(C)(C)C ): 1.1%
